# System tested: Perilipin-5 (Homo sapiens) + 1-acylglycerol-3-phosphate O-acyltransferase ABHD5 (Homo sapiens) (UniProt Q00G26+Q8WTS1)
# Sequence (Q00G26 whole entry, looked up): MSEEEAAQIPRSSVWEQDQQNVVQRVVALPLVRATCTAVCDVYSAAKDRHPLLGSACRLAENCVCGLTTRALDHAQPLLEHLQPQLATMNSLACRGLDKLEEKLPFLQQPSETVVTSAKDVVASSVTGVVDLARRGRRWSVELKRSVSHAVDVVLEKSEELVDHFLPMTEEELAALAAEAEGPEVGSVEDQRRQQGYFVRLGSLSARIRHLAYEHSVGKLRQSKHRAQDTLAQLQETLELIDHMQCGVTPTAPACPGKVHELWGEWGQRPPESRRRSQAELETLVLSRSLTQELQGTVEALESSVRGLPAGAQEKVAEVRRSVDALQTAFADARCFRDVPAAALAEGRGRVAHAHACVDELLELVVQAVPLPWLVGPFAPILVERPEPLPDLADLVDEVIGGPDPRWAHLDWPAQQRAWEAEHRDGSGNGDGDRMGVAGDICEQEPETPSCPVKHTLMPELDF
# Sequence (Q8WTS1 whole entry, looked up): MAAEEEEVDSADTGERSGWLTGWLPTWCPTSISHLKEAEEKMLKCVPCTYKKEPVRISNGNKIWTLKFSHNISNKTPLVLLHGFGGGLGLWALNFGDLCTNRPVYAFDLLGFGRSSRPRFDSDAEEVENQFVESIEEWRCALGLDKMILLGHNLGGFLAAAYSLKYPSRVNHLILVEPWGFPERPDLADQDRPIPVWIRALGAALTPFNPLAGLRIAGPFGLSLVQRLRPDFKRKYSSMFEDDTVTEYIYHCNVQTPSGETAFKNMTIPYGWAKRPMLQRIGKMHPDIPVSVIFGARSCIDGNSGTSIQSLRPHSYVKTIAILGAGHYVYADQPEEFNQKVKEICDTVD
# Protocol notes: ABHD5-PLIN5 interaction inhibitors, dose response, biochemical, luminescence (AID 651677)
Active and inactive are the calls of the source. No rule for the calls is given here.
Possible outcomes: active, inactive

compound=COc1ccc(NC(=O)c2cc3ccccc3cc2O)cc1 qualitative_label=active
compound=CSc1nnc(NC(=O)c2nc(S(=O)(=O)Cc3ccccc3F)ncc2Cl)s1 qualitative_label=active
compound="CC1=CC(C)(C)Nc2ccc(OC(=O)C(C)N3C(=O)c4ccccc4C3=O)cc21 (stereo not given)" qualitative_label=active
compound=CCOC(=O)N1CCN(C(=O)C[C@@H]2C[C@@]3(C(=O)OCC)CCC=C3N(Cc3ccc(Cl)cc3Cl)C2=O)CC1 qualitative_label=inactive
compound=FC(F)(F)c1cccc(NC(=S)N(CCCN2CCCC2)Cc2cccn2Cc2ccc(Cl)cc2)c1 qualitative_label=inactive
compound=COc1ccc(/C=C/C(=O)c2cc(F)ccc2OC(=O)c2ccc(OC)c(OC)c2)cc1OC qualitative_label=active
compound=CCOc1cc(/C=C2\CCC/C(=C\c3cc(Cl)c(O)c(OCC)c3)C2=O)cc(Cl)c1O qualitative_label=active
compound=O=C(/C=C/Sc1ccccc1)c1ccc(Cl)cc1 qualitative_label=active
compound=CCOC(=O)c1c(NC(C)=O)sc2c1CCC(C=O)=C2Sc1ccccc1 qualitative_label=active
compound=Cc1ccc2sc(N(CCCN(C)C)C(=O)CN3C(=O)c4ccccc4C3=O)nc2c1C qualitative_label=inactive
compound="COc1ccc(NC(=O)C(c2cccc3ccccc23)n2c(=O)c(-c3ccco3)nc3ccccc32)cc1 (stereo not given)" qualitative_label=inactive
compound=O=C(/C=C/c1ccc(NC(=O)c2ccccc2-c2ccccc2C(=O)O)cc1)c1ccccc1 qualitative_label=active
compound=CN(C)c1ccc(Cc2cc3c(O)ccc(O)c3cc(Cc3ccc(N(C)C)cc3)c2=O)cc1 qualitative_label=active
compound=CC1CCN(S(=O)(=O)c2ccc(NC(=O)Cc3ccccc3)cc2)CC1 qualitative_label=active
compound=Cc1oc2c(c1C(=O)c1ccc(Cl)cc1)C(=O)C(=O)c1ccccc1-2 qualitative_label=active
compound=Cc1ccc(C(=O)c2c(C)oc3c2C(=O)C(=O)c2ccccc2-3)cc1 qualitative_label=active
compound=Cc1nnc(NC(=O)c2nc(S(=O)(=O)Cc3ccccc3C)ncc2Cl)s1 qualitative_label=active
compound=O=[N+]([O-])/C=C/c1cn(Cc2ccc(F)cc2)c2ccccc12 qualitative_label=active
compound="CCCC(=O)NC(c1cccc([N+](=O)[O-])c1)c1ccc2cccnc2c1O (stereo not given)" qualitative_label=inactive
compound="Cc1cc(C)c(C(CC(=O)c2cccs2)C(C#N)C#N)c(C)c1 (stereo not given)" qualitative_label=active
compound=CCN(CC)CCOc1ccc(/C(=C(\Cl)c2ccccc2)c2ccccc2)cc1 qualitative_label=active
compound="Cc1cccc(C)c1NC(=O)C(c1ccnc2ccccc12)n1c(=O)c(-c2ccco2)nc2ccccc21 (stereo not given)" qualitative_label=active
compound=COc1cc(OC)cc(C(=O)NC(=S)N(Cc2ccccc2)C(C)C)c1 qualitative_label=inactive
compound=Cc1ccc(C)c(/C=C/C(=O)c2ccccc(=O)c2O)c1 qualitative_label=active
compound=COc1cc(C(C)=O)ccc1OCc1cn(CC(=O)c2ccc(O)cc2)nn1 qualitative_label=active
compound="CCCCCNC(=O)C(c1ccccc1F)n1c(=O)c(-c2ccco2)nc2ccccc21 (stereo not given)" qualitative_label=active
compound=CN(C)CCOc1ccc(/C(=C(/CCCl)c2ccccc2)c2ccccc2)cc1 qualitative_label=active
compound="Cc1nc2c(o1)CCc1ccccc1C2N1CCN(C)CC1 (stereo not given)" qualitative_label=active
compound=CCN1/C(=C/C=C/c2oc3ccc(-c4ccccc4)cc3[n+]2CC)Oc2ccc(-c3ccccc3)cc21 qualitative_label=active
compound="CCOc1cc(N)c(Cl)cc1C(=O)NCC1CN(Cc2ccc(F)cc2)CCO1 (stereo not given)" qualitative_label=active
compound=COc1ccccc1-c1cc(C(=O)NC2CCN(C)CC2)c2ccc(Cl)c(C)c2n1 qualitative_label=active
compound=O=c1nc(/C=C/c2ccc(Cl)cc2Cl)cc(C(F)(F)F)[nH]1 qualitative_label=active
compound=CCCc1nnc(NC(=O)c2nc(S(=O)(=O)Cc3cccc(C)c3)ncc2Cl)s1 qualitative_label=active
compound=C#CCN(C[C@@H]1[C@@H](OC(=O)NCc2ccccc2F)[C@@H](OC(=O)NCc2ccccc2F)Cn2c(=O)ccc(=O)n21)S(=O)(=O)c1ccc(C)cc1 qualitative_label=active
compound=O=C(COc1ccccc1Cl)Nc1ccc(N2CCCC2)cc1 qualitative_label=inactive
compound="CC(C)(C)NC(=O)C(c1ccccc1F)n1c(=O)c(-c2ccco2)nc2ccccc21 (stereo not given)" qualitative_label=active
compound="O=C(NCc1ccccc1)C(c1cc2ccccc2o1)n1c(=O)c(-c2ccco2)nc2ccccc21 (stereo not given)" qualitative_label=active
compound=COC(=O)c1ccc(Cn2cc(/C=C\[N+](=O)[O-])c3ccccc32)o1 qualitative_label=active
compound="CCCCCCC=C1CCC(CN2CCCC2)C1=O (stereo not given)" qualitative_label=active
compound=O=C(/C(=C/c1ccccc1)n1cncn1)c1ccc(Cl)cc1Cl qualitative_label=active
